Kindly state pIC50 for each of the entries shown.
Experimental target: HIV-1 RT enzyme (wild type) (Human immunodeficiency virus type 1 group M subtype B)
Construct: The reverse transcriptase (RT) enzyme assay has been adapted to a 96-well microtiter plate format
Assay explanation: Reverse transcriptase (RT) enzymatic assay (IC50), PicoGreen fluorescence, wild type
Assay type: biochemical
Condition parameters: RT enzymatic assay, wild type; read-out: IC50 WT
pIC50: −log10 of the molar value.

Input: For O=C1C(Sc2nnnn2-c2cccc3ccccc23)CCN1c1ccccc1Cl (centres unmarked) [Entry 346] , what is its reported pIC50?
Output: < 7.00

Input: For Cc1ccc(-n2nnnc2SCC(=O)Nc2ccc(C(=O)O)cc2Br)c(Cl)c1 [Entry 505] , what is its reported pIC50?
Output: > 7.30

Input: For Cc1ccccc1NC(=O)CSc1nnnn1-c1cccc2ccccc12 [Entry 202] , what is its reported pIC50?
Output: < 7.00

Input: For Clc1ccccc1OCCCSc1nnnn1-c1cccc2ccccc12 [Entry 324] , what is its reported pIC50?
Output: < 7.00

Input: For O=C(CSc1nnnn1-c1cccc2ccccc12)Nc1cccc([N+](=O)[O-])c1 [Entry 223] , what is its reported pIC50?
Output: < 7.00

Input: For Clc1ccccc1OCCSc1nnnn1-c1cccc2ccccc12 [Entry 321] , what is its reported pIC50?
Output: < 7.00

Input: For COC(=O)c1cccc(-n2nnnc2SCC(=O)Nc2ccccc2[N+](=O)[O-])c1 [Entry 120] , what is its reported pIC50?
Output: < 7.00

Input: For Cc1ccc(-n2nnnc2SCC(=O)Nc2ccc(-c3ccccc3)cc2Cl)c(Cl)c1 [Entry 510] , what is its reported pIC50?
Output: > 7.30

Input: For O=C(CNc1nnnn1-c1cccc2ccccc12)Nc1ccccc1[N+](=O)[O-] [Entry 303] , what is its reported pIC50?
Output: < 7.00

Input: For CC(C)(C)c1ccc(-n2nnnc2SCC(=O)Nc2ccc(C(=O)O)cc2Cl)c(Cl)c1 [Entry 616] , what is its reported pIC50?
Output: > 7.30

Input: For CC(C)c1ccccc1-n1nnnc1SCC(=O)Nc1ccccc1[N+](=O)[O-] [Entry 112] , what is its reported pIC50?
Output: < 7.00

Input: For Cc1ccc(-n2nnnc2SCC(=O)Nc2ccc(C(N)=O)cc2Cl)c(Cl)c1 [Entry 504] , what is its reported pIC50?
Output: > 7.30

Input: For O=C(CSc1nncn1-c1cccc2ccccc12)Nc1ccccc1[N+](=O)[O-] [Entry 402] , what is its reported pIC50?
Output: 7.00 to 7.30

Input: For O=C(CSc1nnnn1-c1cccc2ccccc12)Nc1cccc(Cl)c1F [Entry 232] , what is its reported pIC50?
Output: < 7.00

Input: For CC(C)(C)c1ccc(-n2nnnc2SCC(=O)Nc2ccncc2Cl)c(Cl)c1 [Entry 801] , what is its reported pIC50?
Output: > 7.30

Input: For O=C(CSc1nnnn1-c1cccc2ccccc12)Nc1cccc2c1CCCC2 [Entry 229] , what is its reported pIC50?
Output: < 7.00

Input: For O=[N+]([O-])c1ccccc1/C=C/CSc1nnnn1-c1cccc2ccccc12 [Entry 312] , what is its reported pIC50?
Output: < 7.00

Input: For O=C(CSc1nnnn1-c1cccc2ccccc12)Nc1ccccc1C(F)(F)F [Entry 214] , what is its reported pIC50?
Output: < 7.00

Input: For COc1ccc(NC(=O)CSc2nnnn2-c2cccc3ccccc23)cc1 [Entry 224] , what is its reported pIC50?
Output: < 7.00

Input: For Cc1ccc(-n2nnnc2SCC(=O)Nc2ccc(S(C)(=O)=O)cc2Cl)c(Cl)c1 [Entry 509] , what is its reported pIC50?
Output: > 7.30

Input: For Cc1ccc(Cl)c(-n2nnnc2SCC(=O)Nc2ccccc2[N+](=O)[O-])c1 [Entry 145] , what is its reported pIC50?
Output: > 7.30

Input: For CC(C)(C)c1ccc(-n2nnnc2SCC(=O)Nc2ccc(CCC(=O)O)cc2Cl)c(Cl)c1 [Entry 601] , what is its reported pIC50?
Output: > 7.30

Input: For Cc1nnc(SCC(=O)Nc2ccccc2Cl)n1-c1ccc(C(C)(C)C)cc1Cl [Entry 430] , what is its reported pIC50?
Output: > 7.30

Input: For Cc1ccccc1NC(=O)CSc1nccn1-c1cccc2ccccc12 [Entry 414] , what is its reported pIC50?
Output: < 7.00

Input: For Cc1ccccc1-c1ccc(-n2nnnc2SCC(=O)Nc2ccccc2[N+](=O)[O-])c(C)c1 [Entry 132] , what is its reported pIC50?
Output: < 7.00

Input: For C=CCc1ccc(-n2nnnc2SCC(=O)Nc2ccccc2Cl)c(Cl)c1 [Entry 708] , what is its reported pIC50?
Output: > 7.30

Input: For Cc1ccc(-n2nnnc2SCC(=O)Nc2ccc(-c3ccccc3)cc2C)c(Cl)c1 [Entry 511] , what is its reported pIC50?
Output: > 7.30

Input: For COc1ccc(-n2nnnc2SCC(=O)Nc2ccccc2[N+](=O)[O-])c(OC)c1 [Entry 131] , what is its reported pIC50?
Output: < 7.00

Input: For CC(C)(C)c1ccc(-n2nnnc2SCC(=O)Nc2ccc(N3CCNCC3)cc2Cl)c(Cl)c1 [Entry 615] , what is its reported pIC50?
Output: > 7.30

Input: For Clc1ccccc1/C=C/CSc1nnnn1-c1cccc2ccccc12 [Entry 313] , what is its reported pIC50?
Output: < 7.00

Input: For CC(C)(C)c1ccc(-n2nnnc2SCC(=O)Nc2ccc([N+](=O)[O-])cc2Cl)c(Cl)c1 [Entry 602] , what is its reported pIC50?
Output: > 7.30

Input: For O=C(CSc1nnnn1-c1cccc2ncccc12)Nc1ccccc1[N+](=O)[O-] [Entry 106] , what is its reported pIC50?
Output: < 7.00

Input: For CN(CC(=O)Nc1ccccc1[N+](=O)[O-])Cc1nnnn1-c1cccc2ccccc12 [Entry 338] , what is its reported pIC50?
Output: < 7.00

Input: For O=C(CSc1nc2ccccc2n1-c1ccccc1)Nc1ccccc1[N+](=O)[O-] [Entry 412] , what is its reported pIC50?
Output: < 7.00

Input: For Cc1ccc(NC(=O)CSc2nnnn2-c2ccc(C(C)(C)C)cc2Cl)c(Cl)n1 [Entry 802] , what is its reported pIC50?
Output: > 7.30

Ref: patent US7642277B2
